Assay: Inhibition of IL2 receptor binding to IL2 alpha receptor by scintillation proximity assay

{"smilesString": "CC(C)C[C@@H](NC(=N)N)C(=O)NCC(=O)N1CCC(c2cc(-c3ccc(OCc4ccc(C(=O)O)o4)c(Cl)c3Cl)nn2C)CC1", "Ki, nM": 60}
